FYI, the data here is from ChEMBL document CHEMBL3244150.

In this section, each of the compounds is paired with its reported MIC.
# Test system: Salmonella paratyphi
# experiment.notes: Antibacterial activity against Salmonella paratyphi ATCC 12176 after overnight incubation by twofold agar dilution method
# Assay type: functional, Salmonella enterica subsp. enterica serovar Paratyphi A
# settings: Salmonella enterica
Your answer is read as µg/mL, so omit the unit and give the number.

Cc1nnc(SCC2=C(C(=O)[O-])N3C(=O)[C@@H](NC(=O)CSCC#N)[C@H]3SC2)s1.[Na+] :: 1.6
Cc1nnc(SCC2=C(C(=O)[O-])N3C(=O)[C@@H](NC(=O)CS(=O)(=O)CC(F)(F)F)[C@H]3SC2)s1.[Na+] :: 6.3
Cn1nnnc1SCC1=C(C(=O)[O-])N2C(=O)[C@@H](NC(=O)C[S+]([O-])CC(F)(F)F)[C@H]2SC1.[Na+] (stereo partly drawn) :: 1.6
CC(=O)OCC1=C(C(=O)O)N2C(=O)[C@@H](NC(=O)CS(=O)(=O)CC#N)[C@H]2SC1 :: 3.1
CC(=O)OCC1=C(C(=O)O)N2C(=O)[C@@H](NC(=O)CC#N)[C@H]2SC1 [CEPHACETRILE] :: 3.1

If you can, please state the reported MIC value of Cc1nnc(SCC2=C(C(=O)[O-])N3C(=O)[C@@H](NC(=O)C[S+]([O-])CC#N)[C@H]3SC2)s1.[Na+] (stereo partly drawn) .
0.8

Fill in the blank: the reported MIC of Cn1nnnc1SCC1=C(C(=O)[O-])N2C(=O)[C@@H](NC(=O)CSCC#N)[C@H]2SC1.[Na+] is ____.
0.4

Quick check: MIC of Cc1nnc(SCC2=C(C(=O)[O-])N3C(=O)[C@@H](NC(=O)CSCC(F)(F)F)[C@H]3SC2)s1.[Na+] ?
6.3

---

# Tested on: Shigella flexneri
# experiment.notes: Antibacterial activity against Shigella paradysenteriae HH 117 after overnight incubation by twofold agar dilution method
# Type: functional
# Lookup of reported MIC keyed by entry
Param answer (str): number followed by unit.

CC(=O)OCC1=C(C(=O)[O-])N2C(=O)[C@@H](NC(=O)CSCC(F)(F)F)[C@H]2SC1.[Na+] :: 6.3 µg/mL
Cn1nnnc1SCC1=C(C(=O)[O-])N2C(=O)[C@@H](NC(=O)C[S+]([O-])CC(F)(F)F)[C@H]2SC1.[Na+] (stereo not given in full) :: 0.4 µg/mL
Cn1nnnc1SCC1=C(C(=O)[O-])N2C(=O)[C@@H](NC(=O)CSCC(F)(F)F)[C@H]2SC1.[Na+] :: 0.4 µg/mL
CC(=O)OCC1=C(C(=O)[O-])N2C(=O)[C@@H](NC(=O)C[S+]([O-])CC#N)[C@H]2SC1.[Na+] (stereo not given in full) :: 6.3 µg/mL
Cn1nnnc1SCC1=C(C(=O)O)N2C(=O)[C@@H](NC(=O)CSC(F)(F)F)[C@H]2SC1 [CEFAZAFLUR] :: 0.2 µg/mL

Which measured MIC belongs to Cc1nnc(SCC2=C(C(=O)O)N3C(=O)[C@@H](NC(=O)CS(=O)(=O)CC#N)[C@H]3SC2)s1 , tested on Shigella flexneri?
3.1 µg/mL

What reported MIC corresponds to CC(=O)OCC1=C(C(=O)O)N2C(=O)[C@@H](NC(=O)CC#N)[C@H]2SC1 [CEPHACETRILE] on Shigella flexneri?
3.1 µg/mL

Short answer please: MIC, Shigella flexneri, entry Cc1nnc(SCC2=C(C(=O)[O-])N3C(=O)[C@@H](NC(=O)CSCC(F)(F)F)[C@H]3SC2)s1.[Na+]
1.6 µg/mL

Please tell me: MIC of Cn1nnnc1SCC1=C(C(=O)[O-])N2C(=O)[C@@H](NC(=O)C[S+]([O-])CC#N)[C@H]2SC1.[Na+] (stereo not given in full) , system Shigella flexneri?
1.6 µg/mL

For Shigella flexneri, provide MIC of Cc1nnc(SCC2=C(C(=O)[O-])N3C(=O)[C@@H](NC(=O)CSCC#N)[C@H]3SC2)s1.[Na+] please.
1.6 µg/mL

Notebook: pull reported MIC for Shigella flexneri, entry CC(=O)OCC1=C(C(=O)O)N2C(=O)[C@@H](NC(=O)Cc3cccs3)[C@H]2SC1 [CEPHALOTHIN]
6.3 µg/mL

Entry Cc1nnc(SCC2=C(C(=O)O)N3C(=O)[C@@H](NC(=O)Cn4cnnn4)[C@H]3SC2)s1 [CEFAZOLIN] , system Shigella flexneri: what MIC was measured?
0.4 µg/mL

Form: Entry = Cc1nnc(SCC2=C(C(=O)[O-])N3C(=O)[C@@H](NC(=O)C[S+]([O-])CC(F)(F)F)[C@H]3SC2)s1.[Na+] (stereo not given in full) | System = Shigella flexneri | MIC = ____
0.8 µg/mL

API: value(readout=MIC, system=Shigella flexneri) for record Cc1nnc(SCC2=C(C(=O)[O-])N3C(=O)[C@@H](NC(=O)CS(=O)(=O)CC(F)(F)F)[C@H]3SC2)s1.[Na+]
6.3 µg/mL

GET /values?readout=MIC&system=Shigella flexneri&item= Cn1nnnc1SCC1=C(C(=O)[O-])N2C(=O)[C@@H](NC(=O)CSCC#N)[C@H]2SC1.[Na+]
0.8 µg/mL
